Target: Cellular tumor antigen p53 (Homo sapiens)
Assay: TOX21_p53_BLA_p5_ratio: Tox21 HCT-116 p53 Agonism Beta-lactamase Assay, Ratio, Phase 5 (AID 2283599)
Inconclusive results are not listed. Active and inactive are the calls of the source. Rule for the calls: active = hit-call score of the fitted dose curve at least 0.9, where 1 is the maximum; inconclusive = response in the unintended direction; inactive = score below 0.9.
Outcome codes: class 1 = active, class 0 = inactive

>  <MOLECULE>
c1cc(OCC2CO2)cc(OCC2CO2)c1 (stereo unspecified)

>  <CATEGORY_LABEL>
class 1

$$$$
>  <MOLECULE>
NC(=O)c1ccccc1C(N)=O

>  <CATEGORY_LABEL>
class 1

$$$$
>  <MOLECULE>
CCOC(=O)[C@H](CCc1ccccc1)N[C@@H](C)C(=O)N1C(=O)N(C)C[C@H]1C(=O)O

>  <CATEGORY_LABEL>
class 0

$$$$
>  <MOLECULE>
O=C1C(=O)c2ccccc2C(O)=C1C1CCC(c2ccc(Cl)cc2)CC1 (stereo unspecified)

>  <CATEGORY_LABEL>
class 1

$$$$
>  <MOLECULE>
NC[C@H]1O[C@H](O[C@H]2[C@H](O)[C@@H](O[C@H]3O[C@H](CO)[C@@H](O)[C@H](N)[C@H]3O)[C@H](N)C[C@@H]2N)[C@H](N)C[C@@H]1O

>  <CATEGORY_LABEL>
class 0

$$$$
>  <MOLECULE>
COc1ccc(S(=O)(=O)N2c3ccc(Cl)cc3[C@@](O)(c3ccccc3Cl)[C@H]2C(=O)N2CCC[C@@H]2C(N)=O)cc1OC

>  <CATEGORY_LABEL>
class 0

$$$$
>  <MOLECULE>
O=C(O[C@H]1CN2CCC1CC2)N1CCc2ccccc2[C@@H]1c1ccccc1

>  <CATEGORY_LABEL>
class 0

$$$$
>  <MOLECULE>
CCC=CC#N

>  <CATEGORY_LABEL>
class 0

$$$$
>  <MOLECULE>
CC(=O)Oc1cccc(O)c1

>  <CATEGORY_LABEL>
class 0

$$$$
>  <MOLECULE>
O=C1CCCCO1

>  <CATEGORY_LABEL>
class 0

$$$$
>  <MOLECULE>
CCCC(=O)N1CCCN(c2nc(N)c3cc(OC)c(OC)cc3n2)CC1

>  <CATEGORY_LABEL>
class 0

$$$$
>  <MOLECULE>
O=C1CCC(c2ccccc2)(C2CCN(Cc3ccccc3)CC2)C(=O)N1 (stereo unspecified)

>  <CATEGORY_LABEL>
class 0

$$$$
>  <MOLECULE>
COC(OC)C(C)c1ccccc1 (stereo unspecified)

>  <CATEGORY_LABEL>
class 0

$$$$
>  <MOLECULE>
C=C1CC[C@H](O)C/C1=C/C=C1\CCC[C@]2(C)[C@@H]([C@H](C)CC[C@@H](O)C(C)(C)O)CC[C@@H]12

>  <CATEGORY_LABEL>
class 1

$$$$
>  <MOLECULE>
Cc1cccc(Br)c1

>  <CATEGORY_LABEL>
class 0

$$$$
>  <MOLECULE>
CCCCCCCC[N+](CCCCCCCC)(CCCCCCCC)CCCCCCCC

>  <CATEGORY_LABEL>
class 1

$$$$

* * *

Target: Cellular tumor antigen p53 (Homo sapiens) (UniProt P04637)
Sequence (P04637 whole entry, looked up): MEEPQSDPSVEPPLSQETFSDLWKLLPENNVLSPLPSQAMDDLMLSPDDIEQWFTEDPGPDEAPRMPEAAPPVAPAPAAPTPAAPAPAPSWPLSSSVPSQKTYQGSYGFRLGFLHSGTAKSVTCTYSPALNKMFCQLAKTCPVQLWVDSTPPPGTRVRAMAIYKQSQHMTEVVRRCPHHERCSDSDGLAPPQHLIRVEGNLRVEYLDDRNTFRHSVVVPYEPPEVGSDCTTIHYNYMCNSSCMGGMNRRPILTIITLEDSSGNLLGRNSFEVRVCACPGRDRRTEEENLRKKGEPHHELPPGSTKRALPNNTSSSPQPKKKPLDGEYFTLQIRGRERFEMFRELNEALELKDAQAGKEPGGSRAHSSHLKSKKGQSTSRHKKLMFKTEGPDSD
Test: TOX21_p53_BLA_p2_ratio: Tox21 HCT-116 p53 Agonism Beta-lactamase Assay, Ratio, Phase 2 (AID 2283592)
Records with an inconclusive call do not appear. Calls of active or inactive are those of the source. How the source made its calls: active means hit-call score of the fitted dose curve at least 0.9, where 1 is the maximum; inconclusive means response in the unintended direction; inactive means score below 0.9.
Possible outcomes: YES for active, NO for inactive

>  <COMPOUND>
Oc1ccc(Cl)cc1C1CCCC1

>  <CATEGORY_LABEL>
NO

$$$$
>  <COMPOUND>
Clc1ccc(COC(Cn2ccnc2)c2ccc(Cl)cc2Cl)c(Cl)c1 (stereo not drawn)

>  <CATEGORY_LABEL>
YES

$$$$
>  <COMPOUND>
CCCCN(CCCC)CC(O)c1cc(Cl)cc2c1-c1ccc(Cl)cc1/C2=C/c1ccc(Cl)cc1 (stereo not drawn)

>  <CATEGORY_LABEL>
NO

$$$$
>  <COMPOUND>
CC(C)(C)NCC(O)c1ccc(O)c(CO)c1 (stereo not drawn)

>  <CATEGORY_LABEL>
NO

$$$$
>  <COMPOUND>
CCOC(=O)c1c(C)n(C)c2ccc(O)cc12

>  <CATEGORY_LABEL>
NO

$$$$
>  <COMPOUND>
CCCOc1ccc(C(=O)OCCN(CC)CC)cc1N

>  <CATEGORY_LABEL>
NO

$$$$
>  <COMPOUND>
Cc1c(Cn2ccnc2)c2ccccc2n1CCC(=O)O

>  <CATEGORY_LABEL>
NO

$$$$
>  <COMPOUND>
O=C1CCc2ccc(OCCCCN3CCN(c4cccc(Cl)c4Cl)CC3)cc2N1

>  <CATEGORY_LABEL>
NO

$$$$
>  <COMPOUND>
O=[N+]([O-])c1ccc(ON=Cc2cc(Br)c(O)c(Br)c2)c([N+](=O)[O-])c1

>  <CATEGORY_LABEL>
YES

$$$$
>  <COMPOUND>
CCC(=O)c1ccc(O)cc1

>  <CATEGORY_LABEL>
NO

$$$$
>  <COMPOUND>
COC(=O)[C@H]1[C@H]2C[C@H]3c4[nH]c5ccccc5c4CCN3C[C@H]2CC[C@@H]1O

>  <CATEGORY_LABEL>
NO

$$$$
>  <COMPOUND>
COc1ccccc1OC(=O)Oc1ccccc1OC

>  <CATEGORY_LABEL>
NO

$$$$
>  <COMPOUND>
CCCOC(C(=O)OC1CCN(C)CC1)(c1ccccc1)c1ccccc1

>  <CATEGORY_LABEL>
NO

$$$$
>  <COMPOUND>
CC(=O)Nc1ccc(C=NNC(N)=S)cc1

>  <CATEGORY_LABEL>
NO

$$$$
>  <COMPOUND>
COC(=O)C1=C(C)NC(C)=C(C(=O)OCC(C)=O)C1c1ccccc1[N+](=O)[O-] (stereo not drawn)

>  <CATEGORY_LABEL>
NO

$$$$
>  <COMPOUND>
CCCCN(CCCC)CCCOC(=O)c1ccc(N)cc1

>  <CATEGORY_LABEL>
NO

$$$$
>  <COMPOUND>
C[C@]12C=CC(=O)C=C1[C@@H](F)C[C@@H]1[C@@H]2[C@@H](O)C[C@@]2(C)[C@H]1CC[C@]2(O)C(=O)CO

>  <CATEGORY_LABEL>
NO

$$$$
>  <COMPOUND>
CCCCCCCCCCCCCCCC(=O)OC[C@@H](COP(=O)([O-])OCC[N+](C)(C)C)OC(=O)CCCCCCCCCCCCCCC

>  <CATEGORY_LABEL>
NO

$$$$

* * *

Read-out: Plasminogen activator inhibitor-1 (PAI1), SERPINE1 (gene 5054)
Experiment: BSK_hDFCGF_PAI1: BioMAP Diversity Plus: hDFCGF Assay for Plasminogen activator inhibitor-1 (PAI1) Biomarker Activity (AID 2283066)
Settings: primary human foreskin fibroblasts; actives raise or lower the signal
Active and inactive are the calls of the source. How the source made its calls: active means hit-call score of the fitted dose curve at least 0.9, where 1 is the maximum; inactive means score below 0.9.
Labels: true = active, false = inactive

>  <COMPOUND>
CN(C)CCC(c1ccc(Cl)cc1)c1ccccn1 (stereo not given)

>  <CATEGORY_LABEL>
false

$$$$
>  <COMPOUND>
CC(C)CC(=O)CC(C)CC(C)C (stereo not given)

>  <CATEGORY_LABEL>
true

$$$$
>  <COMPOUND>
CCCCCCC(O)CCCCCCCCCCC(=O)OC (stereo not given)

>  <CATEGORY_LABEL>
true

$$$$
>  <COMPOUND>
CC[N+](CC)(CC(=O)Nc1c(C)cccc1C)Cc1ccccc1 (tested in a mixture with another compound)

>  <CATEGORY_LABEL>
false

$$$$
>  <COMPOUND>
Oc1cccc2ccccc12

>  <CATEGORY_LABEL>
false

$$$$
>  <COMPOUND>
CCCCC(CC)COC(=O)C=Cc1ccc(OC)cc1 (stereo not given)

>  <CATEGORY_LABEL>
false

$$$$
>  <COMPOUND>
CCC[Si](OC(C)=O)(OC(C)=O)OC(C)=O

>  <CATEGORY_LABEL>
false

$$$$
>  <COMPOUND>
C1CN(CCOCCN2CCOCC2)CCO1

>  <CATEGORY_LABEL>
false

$$$$
>  <COMPOUND>
COc1ccc(C(=O)c2ccccc2O)c(O)c1

>  <CATEGORY_LABEL>
false

$$$$
>  <COMPOUND>
CCCCCCCCCCC1CO1 (stereo not given)

>  <CATEGORY_LABEL>
true

$$$$

* * *

Molecular target: Hypoxia-inducible factor 1-alpha (Homo sapiens)
Assay: ATG_HIF1a_CIS: Attagene CIS-FACTORIAL HepG2 Assay for human Hypoxia Inducible Factor 1 (HIF1A) (AID 2282951)
Settings: HepG2 Attagene cis-factorial HIF1a reporter transcription; actives raise or lower the signal
Active and inactive are the calls of the source. The calls were made as follows: active = hit-call score of the fitted dose curve at least 0.9, where 1 is the maximum; inactive = score below 0.9.
Outcomes: yes (1) (active), no (0) (inactive)

>  <MOLECULE>
NCc1ccccc1

>  <CATEGORY_LABEL>
no (0)

$$$$
>  <MOLECULE>
O=C(O)c1ccccc1C(=O)O

>  <CATEGORY_LABEL>
no (0)

$$$$
>  <MOLECULE>
Nc1nnc(-c2ccc([N+](=O)[O-])o2)o1

>  <CATEGORY_LABEL>
no (0)

$$$$
>  <MOLECULE>
COC(=O)c1ccccc1

>  <CATEGORY_LABEL>
no (0)

$$$$
>  <MOLECULE>
COCCCN

>  <CATEGORY_LABEL>
no (0)

$$$$
>  <MOLECULE>
COc1cccc(OC)c1C(=O)O

>  <CATEGORY_LABEL>
no (0)

$$$$
>  <MOLECULE>
O=C(C(=O)c1ccccc1)c1ccccc1

>  <CATEGORY_LABEL>
no (0)

$$$$
>  <MOLECULE>
NC(=O)c1ccc(N)cc1

>  <CATEGORY_LABEL>
no (0)

$$$$
>  <MOLECULE>
O=C(OCc1ccccc1)c1ccccc1

>  <CATEGORY_LABEL>
yes (1)

$$$$
>  <MOLECULE>
CCCC(=O)OC

>  <CATEGORY_LABEL>
no (0)

$$$$
>  <MOLECULE>
CC[N+](CC)(CC(=O)Nc1c(C)cccc1C)Cc1ccccc1

>  <CATEGORY_LABEL>
no (0)

$$$$
>  <MOLECULE>
c1cc[c]([Bi]([c]2ccccc2)[c]2ccccc2)cc1

>  <CATEGORY_LABEL>
no (0)

$$$$
>  <MOLECULE>
C[Si](C)(C)O[Si](C)(C)O[Si](C)(C)C

>  <CATEGORY_LABEL>
no (0)

$$$$
>  <MOLECULE>
CCC(=O)OCc1ccc(OC)cc1

>  <CATEGORY_LABEL>
no (0)

$$$$
>  <MOLECULE>
O=C(O)c1nc(Cl)c(Cl)c(Cl)c1Cl

>  <CATEGORY_LABEL>
no (0)

$$$$
>  <MOLECULE>
O=C(CC(C(=O)OC1CCCCC1)S(=O)(=O)O)OC1CCCCC1 (stereo not given)

>  <CATEGORY_LABEL>
no (0)

$$$$
>  <MOLECULE>
CCCCCC[C@@H](O)C/C=C\CCCCCCCC(=O)O

>  <CATEGORY_LABEL>
no (0)

$$$$
>  <MOLECULE>
CN(C)N=Nc1ccccc1

>  <CATEGORY_LABEL>
no (0)

$$$$
>  <MOLECULE>
O=S(=O)(O)c1cccc2ccccc12

>  <CATEGORY_LABEL>
no (0)

$$$$
>  <MOLECULE>
COC(OC)C(C)c1ccccc1 (stereo not given)

>  <CATEGORY_LABEL>
no (0)

$$$$
>  <MOLECULE>
C/C=C(\C)C(=O)OCC/C=C\CC

>  <CATEGORY_LABEL>
no (0)

$$$$
>  <MOLECULE>
C=C(C)C(=O)OCC1CCCO1 (stereo not given)

>  <CATEGORY_LABEL>
no (0)

$$$$
>  <MOLECULE>
CCCCOC(=O)COc1ccc(Cl)cc1Cl

>  <CATEGORY_LABEL>
no (0)

$$$$
>  <MOLECULE>
Clc1ccc(Sc2cc(Cl)c(Cl)cc2Cl)cc1

>  <CATEGORY_LABEL>
no (0)

$$$$
>  <MOLECULE>
O=C(O)c1cc(Cl)cc(Cl)c1O

>  <CATEGORY_LABEL>
no (0)

$$$$
